Target: HLA-Cw0602 (human)
Conditions: remark: other sources report otherwise
# pKi per entry
// pKi: -log10(molar conc.)

[ask] Which pKi is reported for this binder? TYSTYGKFL (modifications not checked)
[reply] 5.31

Others:
[ask] Which pKi is reported for this binder? NAVAYYRGL (modifications not checked)
[reply] 4.97

Where do the numbers come from? From patent US20060093617A1.
